# test.description: Pharmacokinetics in SD rats after single oral and intravenous administration
# Type: in vivo
# assay.setup: SD, plasma; rat, PO 10 mg/kg
observation.type: Cmax (ng/mL)
Reply with just the number (in ng/mL).

Entry COc1c(NC(=O)/C=C/CN(C)C)ccc2ncnc(Nc3cccc(Cl)c3F)c12 ; Cmax = 281

###

# test.description: Pharmacokinetics in SD rats after single oral and intravenous administration
# Assay type: in vivo
# assay.setup: SD, plasma; rat, PO 10 mg/kg
observation.type: AUC(0-t) (ng·h/mL)
Reply with just the number (in ng·h/mL).

Entry COc1c(NC(=O)/C=C/CN(C)C)ccc2ncnc(Nc3cccc(Cl)c3F)c12 [Example 1] ; AUC(0-t) = 1730

###

# test.description: Pharmacokinetics in SD rats after single oral and intravenous administration
# Assay type: in vivo
# assay.setup: SD, plasma; rat, IV 3 mg/kg
observation.type: half-life
Hey, just the number and the unit after it is fine.

Entry COc1c(NC(=O)/C=C/CN(C)C)ccc2ncnc(Nc3cccc(Cl)c3F)c12 ; half-life = 1.45 h

###

# test.description: Pharmacokinetics in SD rats after single oral and intravenous administration
# Format: in vivo
# assay.setup: SD, plasma; rat, IV 3 mg/kg, time point 0.25 hr; read-out: Plasma drug concentration
# Experimental: In this assay, the pharmacokinetic characteristics and ability to penetrate the blood-brain barrier of the compounds of the present application were assayed after administration of some of the compounds of the present application to SD rats by single oral administration and intravenous injection. • 1. […] Brains were weighed and homogenized by adding 4-fold homogenizing solution (acetonitrile/water=1/1). […] The supernatant was diluted 2-fold with ultra-pure water, and the samples were analyzed by LC/MS. […]
observation.type: concentration at 0.25 hr (ng/mL)
Reply with just the number (in ng/mL).

Entry COc1c(NC(=O)/C=C/CN(C)C)ccc2ncnc(Nc3cccc(Cl)c3F)c12 [Example 1] ; concentration at 0.25 hr = 494

###

# test.description: Pharmacokinetics in SD rats after single oral and intravenous administration
# Type: in vivo
# assay.setup: SD, plasma; rat, IV 3 mg/kg, time point 0 hr; read-out: Plasma drug concentration
observation.type: concentration at 0 hr (ng/mL)
Reply with just the number (in ng/mL).

Entry COc1c(NC(=O)/C=C/CN(C)C)ccc2ncnc(Nc3cccc(Cl)c3F)c12 [Example 1] ; concentration at 0 hr = 0

###

# system.tested: Ba/F3-EGFR-VIII cells (Homo sapiens, UniProt P00533, DELINS30-297G, cells depend on it)
# Sequence (P00533 with tags, fused parts or gaps DELINS30-297G): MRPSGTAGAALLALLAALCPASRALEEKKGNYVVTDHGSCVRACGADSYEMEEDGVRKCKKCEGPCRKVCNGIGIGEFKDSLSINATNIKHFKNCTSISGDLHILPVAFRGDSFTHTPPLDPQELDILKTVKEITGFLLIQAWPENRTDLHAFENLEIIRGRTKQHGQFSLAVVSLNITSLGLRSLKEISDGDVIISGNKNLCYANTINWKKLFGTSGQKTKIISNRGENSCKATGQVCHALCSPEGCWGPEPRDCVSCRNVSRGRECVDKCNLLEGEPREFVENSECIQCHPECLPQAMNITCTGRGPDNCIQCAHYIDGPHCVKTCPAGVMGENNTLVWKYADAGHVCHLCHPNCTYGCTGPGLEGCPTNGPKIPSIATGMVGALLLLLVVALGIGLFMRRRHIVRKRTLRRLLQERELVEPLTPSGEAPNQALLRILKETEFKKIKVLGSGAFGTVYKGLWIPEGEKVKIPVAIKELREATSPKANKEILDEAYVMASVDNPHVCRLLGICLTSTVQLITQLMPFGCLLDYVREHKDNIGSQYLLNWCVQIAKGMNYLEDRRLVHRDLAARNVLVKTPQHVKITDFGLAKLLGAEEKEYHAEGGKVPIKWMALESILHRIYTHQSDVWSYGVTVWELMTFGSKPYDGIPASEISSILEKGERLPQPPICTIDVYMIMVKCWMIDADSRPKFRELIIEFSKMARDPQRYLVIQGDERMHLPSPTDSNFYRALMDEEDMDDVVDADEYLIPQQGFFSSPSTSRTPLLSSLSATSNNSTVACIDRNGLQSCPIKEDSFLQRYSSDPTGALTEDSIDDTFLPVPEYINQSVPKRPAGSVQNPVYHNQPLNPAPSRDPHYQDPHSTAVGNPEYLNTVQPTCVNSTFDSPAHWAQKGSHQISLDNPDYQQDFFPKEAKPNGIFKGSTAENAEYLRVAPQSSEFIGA
# test.description: Inhibition of cell proliferation, CTG method, Ba/F3-EGFR-VIII
# Format: cell-based
# assay.setup: 72 hours, read-out: Ba/F3 EGFRvIII IC50
observation.type: GI50

Entry CN(C)C/C=C/C(=O)Nc1ccc2ncnc(Nc3cccc(Cl)c3F)c2c1OCCCS(C)(=O)=O ; GI50 = 5 to 50 nM

Entry CSCCOc1c(NC(=O)/C=C/CN(C)C)ccc2ncnc(Nc3cccc(Cl)c3F)c12 ; GI50 = 5 to 50 nM

Entry CC(C)Oc1c(NC(=O)/C=C/CN(C)C)ccc2ncnc(Nc3cccc(Cl)c3F)c12 ; GI50 = 50 to 500 nM

Entry COc1c(NC(=O)/C=C/CNC(C)C)ccc2ncnc(Nc3cccc(Cl)c3F)c12 ; GI50 = ≤ 5 nM

Entry CN(C)C/C=C/C(=O)Nc1ccc2ncnc(Nc3cccc(Cl)c3F)c2c1OCCC(F)(F)F ; GI50 = 5 to 50 nM

Entry COc1c(NC(=O)/C=C/CN(C)C)ccc2ncnc(Nc3cccc(Cl)c3F)c12 ; GI50 = ≤ 5 nM

Entry COCCOc1c(NC(=O)/C=C/CN(C)C)ccc2ncnc(Nc3cccc(Cl)c3F)c12 ; GI50 = ≤ 5 nM

Entry CN(C)C/C=C/C(=O)Nc1ccc2ncnc(Nc3cccc(Cl)c3F)c2c1OCCCF ; GI50 = 5 to 50 nM

Entry CN(C)C/C=C/C(=O)Nc1ccc2ncnc(Nc3cccc(Cl)c3F)c2c1OCC(F)(F)F ; GI50 = 5 to 50 nM

Entry CN(C)C/C=C/C(=O)Nc1ccc2ncnc(Nc3cccc(Cl)c3F)c2c1OCC(F)F ; GI50 = 5 to 50 nM

Entry CN(C)C/C=C/C(=O)Nc1ccc2ncnc(Nc3cccc(Cl)c3F)c2c1OCCC(C)(C)O ; GI50 = 5 to 50 nM

Entry CN(C)C/C=C/C(=O)Nc1ccc2ncnc(Nc3cccc(Cl)c3F)c2c1OCCO ; GI50 = ≤ 5 nM

Entry COCCCOc1c(NC(=O)/C=C/CN(C)C)ccc2ncnc(Nc3cccc(Cl)c3F)c12 ; GI50 = 5 to 50 nM

Entry COc1c(NC(=O)/C=C/CN(C)C(C)C)ccc2ncnc(Nc3cccc(Cl)c3F)c12 ; GI50 = 5 to 50 nM

Entry CN(C)C/C=C/C(=O)Nc1ccc2ncnc(Nc3cccc(Cl)c3F)c2c1OCCF ; GI50 = 5 to 50 nM

Entry CN(C)C/C=C/C(=O)Nc1ccc2ncnc(Nc3cccc(Cl)c3F)c2c1OCCCO ; GI50 = ≤ 5 nM

Entry COc1c(NC(=O)/C=C/CN(C)C)ccc2ncnc(Nc3ccc(Cl)c(Cl)c3F)c12 ; GI50 = 5 to 50 nM

Entry COc1c(NC(=O)/C=C/CN(C)C2CC2)ccc2ncnc(Nc3cccc(Cl)c3F)c12 ; GI50 = 5 to 50 nM

Entry CN(C)C/C=C/C(=O)Nc1ccc2ncnc(Nc3cccc(Cl)c3F)c2c1OCC(C)(C)O ; GI50 = ≤ 5 nM
